FYI, the data here is from patent US20260015350A1.

target: KRas^G12A (Homo sapiens, UniProt P01116, G12A); construct: Biotinylated KRas (corresponding to amino acids 1-169, produced at Accelegan Inc.); biotin (biotinylated); purchased Accelegan Inc; test: KRas binding assay (TR-FRET tracer displacement), KRas G12A; conditions: TR-FRET tracer displacement, KRas G12A
Sequence (P01116 1-169 isoform P01116-2 G12A): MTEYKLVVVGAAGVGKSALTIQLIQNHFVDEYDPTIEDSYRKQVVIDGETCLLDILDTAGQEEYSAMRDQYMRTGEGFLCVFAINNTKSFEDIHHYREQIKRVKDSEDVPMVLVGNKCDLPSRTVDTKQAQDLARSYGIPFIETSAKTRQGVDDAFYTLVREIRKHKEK
observed_property: IC50 (nM)

                                   compound  measured_value
0  Oc1cc(-c2ncc3c(N4C[C@@H]5C[C@H](C4)[C@H](O)C5)nc(OC[C@@]45CCCN4C[C@H](F)C5)nc3c2F)c2ccccc2c1              10

A: O=C1NC(=O)C2(CCCN(c3nc(OC[C@@]45CCCN4C[C@H](F)C5)nc4c(F)c(-c5c6ccccc6cc6[nH]ncc56)ncc34)C2)N1 (stereo partly drawn)
B: Cc1cc2[nH]nnc2c(-c2ncc3c(N4CCCn5nc(C(=O)N(C)C)cc5C4)nc(OCC45CCCN4CCC5)nc3c2F)c1C
Prompt line: Lab note: record which item had the higher IC50, A or B . Output the label that corresponds to your choice.
Response line: B
(B: 2380 nM, A: 8 nM)
